- Tested on: MS2 coat protein
- ASSAY_PROCEDURE: apparent KD of MS2 coat protein; designed switch direction (-1 OFF switch, 1 ON switch): -1; higher = weaker reporter binding
- CONDITIONS: Eterna round: R95; input ligand: microRNA oligo, concentration not stated
Below, each of the sequences is paired with its reported apparent KD of MS2 coat protein value.

QUERY_SEQUENCE	apparent KD of MS2 coat protein, nM
GUGGUACAUGAGGAUCACCCAUGUCAGGAUAUCGUGUGUUUUUUUUCGGCCGCGCGUGCGAGAAGGGACGUCUU (puzzle: Exclusion 1)	17.3
GCGGAUCUAGGAUAUACAUGAGGAUCACCCAUGUAAACUCUCUUGGAUGACUACUAUUGUAGAAGGAGAUAAGC [Erlabeedle] (puzzle: Exclusion 3)	24.4
AAGUACCGUCACGAUAGUGAUGGUACAACAAGCAAAUAUACAUGAGGAUCACCCAUGUCCUCUUUUGCUCGUCUUGU [Sensor 3] (puzzle: Sensor v3, turn-off variant 2)	237
CCUUUGUCAGGAUAUCAGAACGCGCUCGUAGGGAGCGCAAAUGAGAAGGGACAUGAGGAUCACCCAUGUAAAGA [Gequleon] (puzzle: Exclusion 4)	43.6
UUUUAACAUGAGGAUCACCCAUGUGAGGAUAUCGAAAUUUAUAUUAAUAUUUUUAUAACGAGAAGGCACAUUUU [JMF 71] (puzzle: Exclusion 1)	64.8
AGAAAGGCCCAUGGCCGCAAGCUUUUUGCUUGUCUUACCACAUGAGGAUCACCCAUGUGACAUGGGCUCCUGAUAAU [Atveuser] (puzzle: Sensor v3, turn-off variant 2)	10.4

---

Below, each of the sequences is paired with its reported apparent KD of MS2 coat protein value.
- Tested on: MS2 coat protein
- ASSAY_PROCEDURE: apparent KD of MS2 coat protein; designed switch direction (-1 OFF switch, 1 ON switch): -1; higher = weaker reporter binding
- CONDITIONS: input ligand: microRNA oligo, concentration not stated

QUERY_SEQUENCE	QUANTITY_UNIT	apparent KD of MS2 coat protein
GGUGGUAUGUCAGGAUAUACAGCCUAAAUGGAAGUAGAAGGGACACAUGAGGGUCACCCAUGUGACAUGAGGAUCACCCAUGUA [Hi3 10-05-2015] (Eterna round: R96, puzzle: Exclusion NG 1)	µM	0.0411
UUCCUCACUUCUUUGUCUCACAUGAGGAUCACCCAUGUAAUAUAGGAUAUGCUUAGUAUUUUUAUGCAGAAGGAUAUUAGUUUU [JR_ExcNG3_Sub085] (Eterna round: R96, puzzle: Exclusion NG 3)	µM	0.0328
GGUCAGAUGGUAGGAUAUCCAUAUCGAGUGACCCUUUUAUAACAUGAGGAUCACCCAUGUCGGUGGGAGAAGGGCCGUACGGCG [salish99_ExNG02_R04_018] (Eterna round: R96, puzzle: Exclusion NG 2)	µM	0.129
AACCUGAGGCUUUGCUUUAGGUUUACAUGAGGAUCACCCAUGUAGGAUAUGGUAGGCUUUGCUUACCAGAAGGACAUGAUAAUU [Mat - Exclusion NG 3 - Mod of JL - D27] (Eterna round: R96, puzzle: Exclusion NG 3)	µM	0.033
AUCAGCUCGUGAGGAUAUACAUGAGGAUCACCCAUGUGAUCAAUAGCAGCUUCGGCUGCAUUAAUGUAGAAGGCACGAGCUGAU [ENG2/5-A3] (Eterna round: R96, puzzle: Exclusion NG 2)	µM	0.0222
ACAUGAGGAUCACCCAUGUAAUGAAGGGUACUAUACUAAACGUAGGAUAUCGAUGUAAGAUUGUACGAGAAGGACGAUUGCCUU [JR_ExcNG3_Sub051] (Eterna round: R96, puzzle: Exclusion NG 3)	µM	0.0293
UGAUCUAGCGGAGGAUAUACAUGAGGAUCACCCAUGUAUAGGCUAUGACCGUAGUCGUGGAACAUGUAGAAGGCCGCUAGAUCU [JL ENG2 3.79] (Eterna round: R96, puzzle: Exclusion NG 2)	µM	0.0403
CCCUAGUAUGUAGGAUAUCGGUCAGUUUCUGAUCGAGAAGGACAUGAGGAUCACCCAUGUAAAACGUCCGGUUUCUGGAUAGGG [JL ENG1 3.56] (Eterna round: R96, puzzle: Exclusion NG 1)	µM	0.017
UCACGGGACUGAGGAUAUACAUGAACCAUGGUUGUAGAAGGCAGAAGGUUGGAUCAUACACUAAACAUGAGGAUCACCCAUGUU [JR_ExcNG1_Sub028] (Eterna round: R96, puzzle: Exclusion NG 1)	µM	0.0157

---

- Tested on: MS2 coat protein
- ASSAY_PROCEDURE: apparent KD of MS2 coat protein; designed switch direction (-1 OFF switch, 1 ON switch): -1; higher = weaker reporter binding
- CONDITIONS: Eterna round: R98; input ligand: FMN 200 uM
Below, each of the sequences is paired with its reported apparent KD of MS2 coat protein value.
MEASURED_PROPERTY: apparent KD of MS2 coat protein (µM)

> print(dat)
                             query.sequence                measured.property  quantity.unit  meas.value
1  AAUAUAAGAGCUGGAAAUAAACUCACAUGAGGAUCACCCAUGUAGGAUAUCAGCACGAUAAGUGCUGAGAAGGACAUCCAGCUC [Denovo 56]  apparent KD of MS2 coat protein             µM      0.0147
2  AAAAUAAAGGCAGGAUAUACAUGAAUAAAUAAUAUAAUAUAUAAUAAAACAUGAGGAUCACCCAUGUAGAAGGGCCAAAAUAAA [LRO024_Exclusion NG 2]  apparent KD of MS2 coat protein             µM       0.107
3  UCAUACAUGAGGAUCACCCAUGACAUGAGGAUCACCCAUGUGCAGGAUAUACGUGAUAUAAUAUAGUAGAAGGGCAGACCAUAA [LRO005_Exclusion NG 3]  apparent KD of MS2 coat protein             µM      0.0591
4  GCACUGGAUGUAGGAUAUCAGGACGAUAAGUCCUGAGAAGGACAUGAGGAUCACCCAUGUGCCAAAACCAGUGCAUAUAAUAUA [Denovo Exng1 33]  apparent KD of MS2 coat protein             µM      0.0169
5  UGUUGUUACGCAGGAUAUUGCCAACAGGCGGUAGGAUAUCCGAAAGGAGAAGGACCGCCAACAGGCGAGAAGGGCGGGUUAACA [pwkr exNG2 2xF7 2FMN.10.1]  apparent KD of MS2 coat protein             µM       0.037
6  AAUAUGAGCUGGAAUAUAAAACUCACAUGAGGAUCACCCAUGUAGGAUAUCAGCACGAUAAGUGCUGAGAAGGACAACCAGCUC [Denovo 31]  apparent KD of MS2 coat protein             µM      0.0151

---

- System: MS2 coat protein
- ASSAY_PROCEDURE: apparent KD of MS2 coat protein; designed switch direction (-1 OFF switch, 1 ON switch): -1; higher = weaker reporter binding
- CONDITIONS: Eterna round: R95; input ligand: microRNA oligo, concentration not stated
Below, each of the sequences is paired with its reported apparent KD of MS2 coat protein value.
MEASURED_PROPERTY: apparent KD of MS2 coat protein

QUERY_SEQUENCE	SYSTEM_TESTED	MEASURED_PROPERTY	MEAS_VALUE
GAAAAGGUAGGAUAUACGAAAAAUAAGGGUAGAAAAAAAACACAUGAGGAUCACCCAUGUAGAAGGACCAAAAG [salish99_ex2_r3_082] (puzzle: Exclusion 2)	MS2 coat protein	apparent KD of MS2 coat protein	27.8 nM
CCGAUAAUGUAGGAUAUCGUAUCGGAAACGAUACGAGAAGGGCAAACAUGAGGAUCACCCAUGUUCCUUAACGG [Mat - Exclusion 6 - Eli Mod - D72] (puzzle: Exclusion 6)	MS2 coat protein	apparent KD of MS2 coat protein	15.8 nM
CUUUAGUGAGGAUAUCAGUAGUAAUACAAUAGUAUUACUAUUGAGAAGGCACAUGAGGAUCACCCAUGUUCCUC [Mat - Exclusion 4 - Mod of Omei - D80] (puzzle: Exclusion 4)	MS2 coat protein	apparent KD of MS2 coat protein	27.2 nM
AGUAACCGUCACGAAAGUGAUGGUUACACAAGCAAAUGUACAUGAGGAUCACCCAUGUCCUCAUUUGCUCGUCUUAU [Sensor 3 - 45] (puzzle: Sensor v3, turn-off variant 2)	MS2 coat protein	apparent KD of MS2 coat protein	379 nM
AGAAAGCAAGGAUAUACAAAGAAACGACCGAAAGAAAAGAAACAUGAGGAUCACCCAUGUAGAAGGUGCAAGAA [JR_Exclu2_Sub031] (puzzle: Exclusion 2)	MS2 coat protein	apparent KD of MS2 coat protein	12.8 nM
GCUGCGCGAGGAUAUGCGGUUCGGGCGGUGGCCGCUGGCGGACAUGAGGAUCACCCAUGUAGAAGGCGUGCGGG [Apr-15 SS2-61] (puzzle: Exclusion 2)	MS2 coat protein	apparent KD of MS2 coat protein	14.9 nM
AGUAACUAUCACGAAAGUGAUAGUUACACAAGCAGUGACACAUGAGGAUCACCCAUGUCCUCAUUUGCUCGUCUUAU [Sensor 3 - 29] (puzzle: Sensor v3, turn-off variant 2)	MS2 coat protein	apparent KD of MS2 coat protein	637 nM
GAUUAUGCGAGCUUUAGGGACAUGAGGAUCACCCAUGUUCGUCUUAUUGGUCUGGAUACGCUGACAUACCUAAAUCU [JMF 97] (puzzle: Sensor v3, turn-off variant 1)	MS2 coat protein	apparent KD of MS2 coat protein	28.4 nM
UCACGUUAGGAGGAUAUCGAUCCAUUAGCGCGACGAGAAGGCCUGACAUGAGGAUCACCCAUGUGGUCAAACAA [Bexelaar] (puzzle: Exclusion 6)	MS2 coat protein	apparent KD of MS2 coat protein	265 nM
AAUAAAGGAGGAUAUACUAAAAUAUGAAUAAAAUAAAUAAAACAUGAGGAUCACCCAUGUAGAAGGCCUAAUAA [JMF's Not so obvious solution 3] (puzzle: Exclusion 2)	MS2 coat protein	apparent KD of MS2 coat protein	23.9 nM
UUUUAACAUGAGGAUCACCCAUGUGAGGAUAUCGAAAUUUAUAUUAAUAUUAUUAAAUCGAGAAGGCACAUUUU [JMF 36] (puzzle: Exclusion 1)	MS2 coat protein	apparent KD of MS2 coat protein	104 nM
